Target or test system: T1, human PD-L1 (human, UniProt Q9NZQ7 19-238, limits assumed)
T1 construct: Protein used in the Biacore assays of 3.1
T1 sequence (Q9NZQ7 19-238 limits assumed): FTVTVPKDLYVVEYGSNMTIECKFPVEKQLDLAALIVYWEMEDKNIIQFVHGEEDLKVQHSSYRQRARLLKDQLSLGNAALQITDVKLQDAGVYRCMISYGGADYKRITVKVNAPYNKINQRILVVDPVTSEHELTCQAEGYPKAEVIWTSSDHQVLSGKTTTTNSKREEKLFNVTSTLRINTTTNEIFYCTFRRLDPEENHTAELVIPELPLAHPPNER
Assay remarks: Biacore kinetic profile
Lab note: compare t½ against 1 h. Equal or greater, write Y. Smaller, write N.

// known answers, use as guide
A09-220-1 (antibody, human IgG1, lambda, V domains shown, also called VH-M31S, M33L, M35F, S63T, I93V) VH: EVQLLESGGGLVQPGGSLRLSCAASGFTFSSYLMFWVRQAPGKGLEWVSSIYPSGGITFYADTVKGRFTISRDNSKNTLYLQMNSLRAEDTAVYYCARIKLGTVTTVDYWGQGTLVTVSS VL: QSALTQPASVSGSPGQSITISCTGTSSDVGAYNYVSWYQQHPGKAPKLMIYDVSNRPSGVSNRFSGSKSGNTASLTISGLQAEDEADYYCSSYTSSSTRVFGTGTKVTVLG :: Y
A09-222-1 (antibody, human IgG1, lambda, V domains shown, also called VH-M31S, M33L, S63T, I93V) VH: EVQLLESGGGLVQPGGSLRLSCAASGFTFSSYLMMWVRQAPGKGLEWVSSIYPSGGITFYADTVKGRFTISRDNSKNTLYLQMNSLRAEDTAVYYCARIKLGTVTTVDYWGQGTLVTVSS VL: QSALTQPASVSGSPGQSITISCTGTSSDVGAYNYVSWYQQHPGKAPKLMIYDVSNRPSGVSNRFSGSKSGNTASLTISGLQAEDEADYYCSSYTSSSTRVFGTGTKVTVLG :: N
A09-219-1 (antibody, human IgG1, lambda, V domains shown, also called VH-M31S, M33I, M35F, S63T, I93V) VH: EVQLLESGGGLVQPGGSLRLSCAASGFTFSSYIMFWVRQAPGKGLEWVSSIYPSGGITFYADTVKGRFTISRDNSKNTLYLQMNSLRAEDTAVYYCARIKLGTVTTVDYWGQGTLVTVSS VL: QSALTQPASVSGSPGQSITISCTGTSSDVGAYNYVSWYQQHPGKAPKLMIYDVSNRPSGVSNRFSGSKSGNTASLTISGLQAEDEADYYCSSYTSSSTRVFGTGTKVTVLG :: Y

For this binder, is measured t½ 1 h or higher? A09-243-2 (antibody, human IgG1, lambda, V domains shown, also called VL-A31G; VH-M31I, M33L, S63T, I93V) VH: EVQLLESGGGLVQPGGSLRLSCAASGFTFSIYLMMWVRQAPGKGLEWVSSIYPSGGITFYADTVKGRFTISRDNSKNTLYLQMNSLRAEDTAVYYCARIKLGTVTTVDYWGQGTLVTVSS VL: QSALTQPASVSGSPGQSITISCTGTSSDVGGYNYVSWYQQHPGKAPKLMIYDVSNRPSGVSNRFSGSKSGNTASLTISGLQAEDEADYYCSSYTSSSTRVFGTGTKVTVLG
Y

For this binder, is measured t½ 1 h or higher? A09-247-2 (antibody, human IgG1, lambda, V domains shown, also called VL-A31G; VH-M31S, M33L, S63T, I93V) VH: EVQLLESGGGLVQPGGSLRLSCAASGFTFSSYLMMWVRQAPGKGLEWVSSIYPSGGITFYADTVKGRFTISRDNSKNTLYLQMNSLRAEDTAVYYCARIKLGTVTTVDYWGQGTLVTVSS VL: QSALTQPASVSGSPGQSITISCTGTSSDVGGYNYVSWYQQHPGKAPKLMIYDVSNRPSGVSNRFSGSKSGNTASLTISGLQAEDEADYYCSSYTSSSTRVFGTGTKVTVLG
N
